For HBO-KAT7 (Homo sapiens), measured pIC50 is reported for the entries below.
// field semantics: pIC50 = negative decimal log of concentration (mol/L)

See these solved cases before continuing.
{"molecule": "COc1cccc(OCc2ccccc2)c1S(=O)(=O)Nc1noc2cccc(OC)c12 [Example 222]", "pIC50": 5.85}
{"molecule": "COc1ccc(C(C)C)cc1S(=O)(=O)Nc1noc2cccc(Cl)c12 [Example 41]", "pIC50": 4.93}
{"molecule": "Cc1ccc(S(=O)(=O)Nc2noc3cccc(Cl)c23)cc1Cl [Example 31]", "pIC50": 4.27}
{"molecule": "CC(C)(C)c1ccc(S(=O)(=O)Nc2noc3cccc(Cl)c23)cc1 [Example 25]", "pIC50": 4.38}
{"molecule": "COc1cccc2onc(NS(=O)(=O)c3ccc4c(c3)CCCC4)c12 [Example 84]", "pIC50": 4.70}

I looked up COc1cccc(O)c1S(=O)(=O)Nc1noc2cccc(OC)c12 [Example 213] and its pIC50 for HBO-KAT7 (Homo sapiens) was 4.69

Item COCc1cc2onc(NS(=O)(=O)c3c(OC)cccc3OC)c2cc1C [Example 97] was tested on HBO-KAT7 (Homo sapiens); the reported pIC50 is 6.35

Test item CS(=O)(=O)c1ccc(S(=O)(=O)Nc2noc3cccc(Cl)c23)cc1 [Example 21] ; HBO-KAT7 (Homo sapiens); reported pIC50 was 4.59

Lab note: molecule COCc1cc(OC)c2c(NS(=O)(=O)c3c(OC)ccc(Cl)c3OC)noc2c1 [Example 175] tested on HBO-KAT7 (Homo sapiens); recorded pIC50 was 5.23

Bench note, HBO-KAT7 (Homo sapiens): entry Cc1ccc(-c2ccno2)cc1S(=O)(=O)Nc1noc2cccc(Cl)c12 [Example 19] , its pIC50 = 4.44

Item: COc1cccc(OC(C)C)c1S(=O)(=O)Nc1noc2cccc(OC)c12 [Example 217] | System: HBO-KAT7 (Homo sapiens) | pIC50: 4.74

Measured pIC50 for this entry COc1cccc(OC)c1S(=O)(=O)Nc1noc2cc(-c3ncco3)c(C)cc12 [Example 102] on HBO-KAT7 (Homo sapiens): 6.25

Record COc1ccc(Oc2ccccc2)cc1S(=O)(=O)Nc1noc2cccc(OC)c12 [Example 99] ; system HBO-KAT7 (Homo sapiens); pIC50 = 5.24

----------
- Tested on: acetylation of the histone H3 Lysine 14 marker in U2OS cells
- test-details: Histone H3 Lysine 14 Acetylation Biomarker Assay
- Assay type: cell-based
- experimental-context: Homo sapiens, serum free medium, 24 hours incubation, read-out: IC50, inhibition of histone H3 Lysine 14 acetylation
- Description: Compounds were tested for their ability to inhibit acetylation of the histone H3 Lysine 14 marker in the following assay: The cell line U2OS was seeded at a density of 3,000 cells per well in 384-well optical quality tissue culture plates in RPMI medium supplemented with 10% foetal bovine serum and 10 mM Hepes. […] Plates were washed and read on a PerkinElmer Opera HCS high content imaging platform. […]
# label = Met if IC50 < 2000 nM else Not met

Some solved entries appear below for comparison.
{"entry-smiles": "COc1ccnc2c(S(=O)(=O)Nc3noc4cccc(OC)c34)cccc12", "classification": "Not met"}
{"entry-smiles": "CCOc1cccc(OC)c1S(=O)(=O)Nc1noc2cccc(OC)c12", "classification": "Not met"}
{"entry-smiles": "COc1cc(CNC(C)=O)cc(OC)c1S(=O)(=O)Nc1noc2cccc(OC)c12", "classification": "Not met"}
{"entry-smiles": "COCc1cc2onc(NS(=O)(=O)c3ccc(OC)cc3OC)c2cc1C", "classification": "Not met"}
{"entry-smiles": "COc1ccccc1-c1cc(OC)c2c(NS(=O)(=O)c3c(OC)cccc3OC)noc2c1", "classification": "Met"}
{"entry-smiles": "CCc1ccc(OC)c(S(=O)(=O)Nc2noc3ccc(C4CC4)cc23)c1", "classification": "Not met"}
{"entry-smiles": "COc1cccc(OC)c1S(=O)(=O)Nc1noc2c(-c3ccccc3)cc(C)cc12", "classification": "Not met"}
{"entry-smiles": "COc1cccc(OC)c1S(=O)(=O)Nc1noc2cc(-c3ccccn3)cc(OC)c12", "classification": "Not met"}

input: Could you please tell me whether IC50 recorded for `COCc1cc2onc(NS(=O)(=O)c3c(OC)cccc3OC)c2cc1C` is less than 2000 nM?
output: Met

input: Please let me know if `COCc1cc(OC)c2c(NS(=O)(=O)c3ccc(OC)c4cccnc34)noc2c1` shows IC50 below 2000 nM.
output: Met

----------
- experimental-target: HBO-KAT7 (Homo sapiens)
- Sequence (O95251 with tags, fused parts or gaps): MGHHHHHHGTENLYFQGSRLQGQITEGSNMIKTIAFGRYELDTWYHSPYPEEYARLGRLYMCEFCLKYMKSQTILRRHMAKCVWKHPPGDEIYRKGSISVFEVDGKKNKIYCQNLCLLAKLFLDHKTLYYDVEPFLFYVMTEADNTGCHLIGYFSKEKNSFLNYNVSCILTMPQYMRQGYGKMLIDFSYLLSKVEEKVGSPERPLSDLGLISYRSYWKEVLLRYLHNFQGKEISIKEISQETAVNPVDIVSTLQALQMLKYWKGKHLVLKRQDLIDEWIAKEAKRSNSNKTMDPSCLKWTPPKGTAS
measured-endpoint: pIC50
Scale: negative log10 of molar concentration, which is what pIC50 denotes.

{"molecule": "COc1cccc(OC)c1S(=O)(=O)Nc1noc2cc(-c3cccnc3)cc(OC)c12 [Example 246]", "pIC50": 6.32}
{"molecule": "CCc1ccc(OC)c(S(=O)(=O)Nc2noc3cccc(C)c23)c1 [Example 198]", "pIC50": 5.16}
{"molecule": "COc1cncc(-c2cc(OC)c3c(NS(=O)(=O)c4c(OC)cccc4OC)noc3c2)c1 [Example 250]", "pIC50": 7.30}
{"molecule": "COc1cc(CO)cc(OC)c1S(=O)(=O)Nc1noc2cccc(OC)c12 [Example 209]", "pIC50": 5.98}
{"molecule": "O=S(=O)(Nc1noc2ccccc12)c1ccc(-c2ccccc2)cc1 [Example 69]", "pIC50": 4.03}

Per the record, CCc1ccc(OC)c(S(=O)(=O)Nc2noc3ccc(C#N)cc23)c1 [Example 233] has pIC50 of 4.75

pIC50 reported for this molecule CCc1ccc(OC)c(S(=O)(=O)Nc2noc3cccc(Cl)c23)c1 [Example 154] : 5.50

Measured pIC50 of Cc1ncc(-c2ccc(C)c(S(=O)(=O)Nc3noc4cccc(Cl)c34)c2)o1 [Example 18] : 4.47

For reference, reported pIC50 for CCc1ccc(OC)c(S(=O)(=O)Nc2noc3cc(CC)ccc23)c1 [Example 194] stands at 5.16

response.value for O=S(=O)(Nc1noc2cccc(Cl)c12)c1ccccc1F [Example 30] (field: pIC50) = 4.94

----------
- experimental-target: TIP60-KAT5 (Homo sapiens)
- Sequence (Q92993 with tags, fused parts or gaps isoform Q92993-2): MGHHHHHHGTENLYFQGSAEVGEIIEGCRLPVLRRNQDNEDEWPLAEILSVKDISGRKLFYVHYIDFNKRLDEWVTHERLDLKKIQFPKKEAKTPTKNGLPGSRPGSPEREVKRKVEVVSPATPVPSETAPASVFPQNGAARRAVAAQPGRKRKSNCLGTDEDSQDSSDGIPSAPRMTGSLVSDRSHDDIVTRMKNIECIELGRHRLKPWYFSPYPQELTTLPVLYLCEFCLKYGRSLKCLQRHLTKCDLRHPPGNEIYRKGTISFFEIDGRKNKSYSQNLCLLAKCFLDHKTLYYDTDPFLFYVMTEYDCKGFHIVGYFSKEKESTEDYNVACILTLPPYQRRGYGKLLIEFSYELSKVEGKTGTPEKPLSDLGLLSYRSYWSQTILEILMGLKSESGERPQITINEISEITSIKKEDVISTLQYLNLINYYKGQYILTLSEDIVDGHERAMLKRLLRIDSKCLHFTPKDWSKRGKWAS
measured-endpoint: pIC50
Value format note: pIC50 is -log10 of concentration (mol/L); just state the number.

{"molecule": "COc1cccc2onc(NS(=O)(=O)c3cccc4c(C)ccnc34)c12 [Example 79]", "pIC50": 4.76}
{"molecule": "COc1cccc(-c2cc(OC)c3c(NS(=O)(=O)c4c(OC)cccc4OC)noc3c2)c1 [Example 177]", "pIC50": 5.15}
{"molecule": "COc1cccc(OC)c1S(=O)(=O)Nc1noc2cc(C(C)OC)cc(OC)c12 (centres unmarked) [Example 93]", "pIC50": 4.28}
{"molecule": "CCc1ccc2onc(NS(=O)(=O)c3cc4c(cc3OC)CCCC4)c2c1 [Example 204]", "pIC50": 5.34}
{"molecule": "COc1cc2c(cc1S(=O)(=O)Nc1noc3ccc(C4CC4)cc13)CCCC2 [Example 205]", "pIC50": 5.43}

# value of pIC50, TIP60-KAT5 (Homo sapiens), item COCc1cc2onc(NS(=O)(=O)c3ccc(OC)cc3OC)c2cc1C [Example 166] = 5.51

----------
- experimental-target: MOZ-KAT6A (Homo sapiens, UniProt Q92794, A567V)
- Sequence (Q92794 with tags, fused parts or gaps A567V): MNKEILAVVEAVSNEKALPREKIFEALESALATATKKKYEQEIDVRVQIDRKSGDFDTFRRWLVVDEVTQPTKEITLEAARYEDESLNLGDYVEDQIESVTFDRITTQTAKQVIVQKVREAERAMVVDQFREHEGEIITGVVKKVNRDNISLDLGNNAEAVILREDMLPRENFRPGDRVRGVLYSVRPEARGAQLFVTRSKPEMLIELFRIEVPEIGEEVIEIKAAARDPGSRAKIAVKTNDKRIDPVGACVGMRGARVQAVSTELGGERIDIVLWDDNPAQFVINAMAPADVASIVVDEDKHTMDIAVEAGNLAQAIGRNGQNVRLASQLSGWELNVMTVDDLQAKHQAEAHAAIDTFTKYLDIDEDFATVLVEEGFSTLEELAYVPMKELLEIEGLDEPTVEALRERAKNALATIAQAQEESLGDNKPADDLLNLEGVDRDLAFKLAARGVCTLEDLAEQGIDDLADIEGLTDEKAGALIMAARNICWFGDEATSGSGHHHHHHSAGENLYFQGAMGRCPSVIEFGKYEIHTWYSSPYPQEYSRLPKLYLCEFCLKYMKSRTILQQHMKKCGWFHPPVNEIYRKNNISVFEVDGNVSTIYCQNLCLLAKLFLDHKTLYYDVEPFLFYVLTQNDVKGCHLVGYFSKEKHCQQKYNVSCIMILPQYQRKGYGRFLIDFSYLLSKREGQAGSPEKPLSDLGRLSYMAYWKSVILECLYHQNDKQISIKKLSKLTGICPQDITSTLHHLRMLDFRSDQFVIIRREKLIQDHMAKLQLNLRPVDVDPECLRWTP
- test-details: Acetyltransferase biochemical assay (AlphaScreen), KAT6A
pIC50: −log10 of the molar value.
Returns 1 if the recorded pIC50 is greater than or equal to 5, and -1 otherwise.

{"entry-smiles": "COc1ccc(C(C)(C)C)cc1S(=O)(=O)Nc1noc2cccc(Cl)c12", "experimental-target": "MOZ-KAT6A (Homo sapiens, UniProt Q92794, A567V)", "classification": 1}
{"entry-smiles": "COCc1cc(OC)c2c(NS(=O)(=O)c3c(O)cccc3OC)noc2c1", "experimental-target": "MOZ-KAT6A (Homo sapiens, UniProt Q92794, A567V)", "classification": 1}
{"entry-smiles": "COCc1ccccc1S(=O)(=O)Nc1noc2cccc(Cl)c12", "experimental-target": "MOZ-KAT6A (Homo sapiens, UniProt Q92794, A567V)", "classification": -1}
{"entry-smiles": "COCc1ccccc1S(=O)(=O)Nc1noc2cccc(OC)c12", "experimental-target": "MOZ-KAT6A (Homo sapiens, UniProt Q92794, A567V)", "classification": -1}
{"entry-smiles": "COc1cccc(OC)c1S(=O)(=O)Nc1noc2cc(-c3ncco3)c(C)cc12", "experimental-target": "MOZ-KAT6A (Homo sapiens, UniProt Q92794, A567V)", "classification": 1}

input: Please tell me: is the compound `CCc1ccc(OC)c(S(=O)(=O)Nc2noc3cc(-n4nccn4)ccc23)c1` at or over 5 in terms of pIC50?
output: 1

input: Is reported pIC50 greater than or equal to 5 here: `COc1ccccc1S(=O)(=O)Nc1noc2cccc(Cl)c12`
output: 1

input: Does the reported pIC50 for `COc1cc(C)c(Cl)cc1S(=O)(=O)Nc1noc2ccccc12` fall at or above the 5 mark?
output: -1

input: Determine whether this compound has pIC50 no lower than 5: `COCc1cc(OC)c2c(NS(=O)(=O)c3ccc(OC)c4cccnc34)noc2c1`
output: 1

Data origin: patent US12365655B2
